biological target: Induced myeloid leukemia cell differentiation protein Mcl-1 (Homo sapiens); experiment: MCL1-BIM peptide interaction disruptors – biochemical, fluorescence polarization, primary screen (AID 2057); details: GST-MCL1 / FITC-Bim-BH3 fluorescence polarization; at 10.9 µM;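 further: higher means more loss of mP so more displacement of Bim peptide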
In all, about 320,000 compounds went through this assay and about 2,100 (0.66%) were called active.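 How the source made its calls: active means inhibition above the mean inhibition of all tested compounds plus 3 SD, set per campaign (cut at about 40% in these data); inactive means the rest.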 Only a selection was taken, and actives are over-represented in it overall.
Can you answer with just one of these options? active, inactive

See these solved cases before continuing.
CCC(C)CN1CCC(CO)(Cc2ccccc2Cl)CC1 (stereo unspecified)    inactive
CC(C)COC(=O)C1C2C=CC3(CN(C(C)c4ccc(Br)cc4)C(=O)C13)O2 (stereo unspecified)    inactive
CN1C(=O)/C(=C\c2cc(Br)cs2)c2ccccc21    inactive
COc1cc(/C=N\Nc2ccc([N+](=O)[O-])cn2)ccc1OCC(=O)O    inactive
CC1CC(=O)N(CC(=O)Nc2cccc(Cl)c2)c2ccccc2S1(=O)=O (stereo unspecified)    inactive

Query block: Can you look up the reported call for COC(=O)c1ccccc1NC(=O)CSc1nc2c(c(=O)[nH]1)CCC2 for me?
Result block: inactive

Query block: Now give it for CSc1ccccc1C(=O)OCC(=O)N1CCN(C(C)=O)CC1 too.
Result block: inactive

Query block: Now give it for O=C(Cn1c(NCCO)nc2ccccc21)c1ccc(Cl)cc1Cl too.
Result block: inactive

Query block: Now give it for COc1ccc(Nc2ccc([N+](=O)[O-])cn2)cn1 too.
Result block: active

Query block: Now give it for CCCN1CC=C2C(C#N)=C(N)C(C#N)(C#N)C(c3cc(OC)ccc3OC)C2C1 (stereo unspecified) too.
Result block: active

Query block: Now give it for Cc1nc2nc(C)c(NS(=O)(=O)c3ccc(C(C)(C)C)cc3)c(=O)n2[nH]1 too.
Result block: inactive
